// reported growth per item
Test system: T-47D breast
Test: NCI-60 one-dose screen, 48 h (100 = growth as untreated, 0 = no growth, -100 = all killed)
Details: 10 µM unless noted
Compounds without any hit were thinned out: in the full panel of roughly 83,000, 20% have a hit.
Reply numerically in %, unit not repeated.

COc1cc(C(=O)NNC(=O)c2ccccc2O)cc(OC)c1OC
82.5
CN1CCN(CC(=O)N(C)c2ccc(N=C(c3ccccc3)c3c(O)[nH]c4ccc(C#N)cc34)cc2)CC1
69.4
Cc1ccc(N(CC2=NCCN2)c2cccc(O)c2)cc1
98.5
Nc1n[nH]c2cccc(C#Cc3cccc(NC(=O)c4cccc(C(F)(F)F)c4)c3)c12
25.3
CCOc1ccccc1C(=O)N1CCN(c2cc(Cl)cc(Cl)c2)CC1
49
COc1cc(-c2nc3sc(C)cn3c2/C=C2\C(=O)Nc3ccccc32)c(Br)c(OC)c1OC
51.5
COc1ccc(-c2nnc(SCC(=O)Nc3ccc(C(=O)/C=C/c4ccc(OC)c(OC)c4)cc3)o2)cc1
75
Cc1[nH]n(C(=O)c2ccncc2)c(=O)c1N=Nc1ccc(S(=O)(=O)Nc2ccncn2)cc1
113
Nn1c(CN2CCN(c3cc4c(cc3F)c(=O)c(C(=O)O)cn4C3CC3)CC2)n[nH]c1=S
98.3
COc1ccc(Cn2cc3c(c2-c2cc(OC)c(OC)c(OC)c2)CCc2c(CO)noc2-3)cc1
64.3

Next up:
For the molecule `O=c1c(-c2ccc3c(c2)OCO3)coc2c(CO)c(O)ccc12` , what growth is on record?
19.2

* * *

System: SK-MEL-2 melanoma
Assay: NCI-60 one-dose screen, 48 h (100 = growth as untreated, 0 = no growth, -100 = all killed)
Settings: 10 µM unless noted
About 83,000 compounds went through this panel and 20% of them were active in at least one assay; those are over-represented in the sample as a whole.
// reported growth per item
Reply numerically in %, unit not repeated.

O=C(Nc1ccc(-n2ccc3c(NC(=O)c4ccccc4)ncnc32)cc1)Nc1cccc(Cl)c1Cl
-39.1
CCc1c(C)c2cc3nc(NCc4ccccc4)oc3c(C)c2oc1=O
83.6
CCCCC(=O)Nc1nc2ccc(SCCC)cc2s1
50.1
COc1ccc(-c2nnc(SCC(=O)Nc3ccc(C(=O)/C=C/c4ccccc4)cc3)o2)cc1OC
98
CCOC(=O)C1CN(Cc2ccccc2)C(=O)C1=O (stereo unspecified)
114
CN(C)c1ccc(/C=N/N=C(N)N)cc1
78.6
Cc1cccc[n+]1CCC[n+]1ccccc1C
100
COc1cccc(-c2nc3sccn3c2-c2ccnc(NCCNC(=O)Nc3cccc(C(F)(F)F)c3)n2)c1
61.9
CC(NCCC(c1ccccc1)c1ccccc1)c1ccccc1 (stereo unspecified)
79
COc1ccc(/C(=C/c2cc(OC)c(OC)c(OC)c2)[N+](=O)[O-])cc1
-13.2

For the compound `COC(=O)c1ccc2c(c1)Oc1ccc(Cl)cc1-c1cc(C)nn1-2` , what growth is on record?
100

For the compound COc1ccc(SC2c3ccc(O)cc3Oc3nc(N)c(C#N)c(N)c32)cc1 (stereo unspecified) , what growth is on record?
98.1

For the compound `Cc1cn(-c2cc(C(=O)Nc3cccc(-n4ccc5c(NC(=O)c6ccccc6)nccc54)c3)cc(C(F)(F)F)c2)cn1` , what growth is on record?
11.2

For the compound `CCn1c(SC)nnc1-c1cc2c([nH]c3ccccc32)c(-c2cccc(O)c2)n1` , what growth is on record?
15.6

For the compound `O=C(CSc1nnc(-c2ccccc2)o1)Nc1ccc(C(=O)/C=C/c2ccccc2)cc1` , what growth is on record?
99.2

For the compound `O=C(O)c1ccc(-n2cc(/C=N/Nc3ccccc3F)c(-c3ccc(O)cc3)n2)cc1` , what growth is on record?
91.5

For the compound `O[C@@H]1CCO[C@H](c2ccc3ccccc3c2)C1` , what growth is on record?
96

* * *

// reported growth per item
System: OVCAR-4 ovarian
Assay: NCI-60 one-dose screen, 48 h (100 = growth as untreated, 0 = no growth, -100 = all killed)
Conditions: 10 µM unless noted
Description: Growth inhibition of the OVCAR-4 human tumor cell line is measured as a screen for anti-cancer activity. Cells are grown in 96 well plates and exposed to the test compound for 48 hours. Compounds are tested at a single concentration, which is 10^-5 M for most compounds. The reported endpoint is percent growth (GI% or GIPRCNT), where numbers from 0 - 100% represent growth inhibition, and numbers from -100% - 0 represent cell death. For example, a value of 40 represents 60% growth inhibition. […]
Compounds without any hit were thinned out: in the full panel of roughly 83,000, 20% have a hit.
Reply numerically in %, unit not repeated.

COC(=O)Nc1nc2ccc(Sc3ccccc3)cc2[nH]1
49.4
CC(C)CNCC(O)COc1ccc(C(C)(C)c2ccc(OCC(O)CNCC(C)C)cc2)cc1 (stereo not drawn)
81
C[C@]12O[C@H]1[C@H](O)c1c(cc(O)c3c1C(=O)c1cccc(O)c1-3)C2=O
92.4
S=c1ssnc1-c1ccccn1
56.1

For the compound `COc1ccc(C(=O)NC(=O)Nc2ccc3c(c2)NC(=O)/C3=C\c2[nH]c(C)c(C(=O)O)c2C)cc1` , what growth is on record?
93

For the compound `CCCCCC/C=N/Nc1ccc([N+](=O)[O-])cn1` , what growth is on record?
118

For the compound `O=C(Nc1ccc(-n2ccc3c(NC(=O)c4ccccc4)ncnc32)cc1)Nc1ccc(Cl)c(C(F)(F)F)c1` , what growth is on record?
-42.8

* * *

Tested on: HOP-92 NSCLC
Experiment: NCI-60 one-dose screen, 48 h (100 = growth as untreated, 0 = no growth, -100 = all killed)
Details: 10 µM unless noted
Compounds without any hit were thinned out: in the full panel of roughly 83,000, 20% have a hit.
Binarize growth at 90%; below is 1.0, at or above is 0.0.

Cc1nccc2c3ccc(OCc4cn(Cc5ccc(Br)cc5)nn4)cc3n(CCCc3ccccc3)c12
1.0
COc1ccccc1N1CCN(CCCOc2ccc(OCCCN3CCN(c4ccccc4OC)CC3)c(C(=O)c3cc(OC)c(OC)c(OC)c3)c2)CC1
0.0
c1ccc([Se]CCCN2CCN(CCC[Se]c3ccccc3)CC2)cc1
1.0
CC(NCCC(c1ccccc1)c1ccccc1)c1ccccc1 (stereo not given)
1.0

# check: growth < 90% for `COc1cc(/C=C/C(=O)c2ccc(Oc3ncnc4ccccc34)cc2)cc(OC)c1OC`
0.0

# check: growth < 90% for `CC(=O)Nc1ccc(OC(=O)c2ccccc2O)cc1`
1.0

# check: growth < 90% for CC(C)CNCC(O)COc1ccc(C(C)(C)c2ccc(OCC(O)CNCC(C)C)cc2)cc1 (stereo not given)
1.0

# check: growth < 90% for `FC(F)(F)c1cn(CC2CNC2)c2ncnc(Cl)c12`
0.0

# check: growth < 90% for `COc1ccc(-c2cc(-c3nnc(SC/C(=N\O)c4ccccc4)n3-c3ccccc3)c3ccccc3n2)cc1`
0.0

# check: growth < 90% for `CCc1cccc(C)c1NC(=O)c1sc2nc3c(cc2c1N)CCCCC3`
1.0

* * *

Tested on: ACHN renal
Experiment: NCI-60 one-dose screen, 48 h
Settings: 10 µM unless noted
This is part of a sample that, as a whole, favours compounds with a hit. Of some 83,000 tested, about 20% had one in any assay. Activity calls are given as the source filed them. How the source made its calls: active means growth percent below 10; inactive means the rest.
Entry note: the call must match one of true = active, false = inactive

Answered examples (5):
O=C(NCCNc1nccc(-c2c(-c3cccc(O)c3)nc3sccn23)n1)c1ccccc1
false
COc1ccc2c(c1)C(=O)/C(=C/c1cccc(OCC(=O)c3ccccc3)c1)O2
false
CCn1cc(/C=C2\Oc3cc(OCC#N)ccc3C2=O)c2cc(OC)ccc21
false
C=C1C(=O)O[C@H]2[C@H]1CC/C(COC(=O)c1ccc(Cl)nc1)=C\CC[C@@]1(C)O[C@@H]21
true
NC(N)=N/N=C/c1ccc([N+](=O)[O-])cc1
false

Pending compound:
What is the recorded call for this compound in the test? `Nc1ccc(S(=O)(=O)Nc2cc(I)cc(I)c2)cc1`
false

* * *

System: SK-MEL-28 melanoma
Assay: NCI-60 one-dose screen, 48 h (100 = growth as untreated, 0 = no growth, -100 = all killed)
Conditions: 10 µM unless noted
Compounds without any hit were thinned out: in the full panel of roughly 83,000, 20% have a hit.
// reported growth per item
Reply numerically in %, unit not repeated.

// worked examples, growth included
CCOc1ccc(-n2c(-c3cc(OC)c(OC)c(OC)c3)nnc2-c2ccc(OC)cc2N)cc1
80.2
COc1cc(/C=C2/Oc3cc4occc4c(OC)c3C2=O)ccc1OCC(=O)Nc1ccncc1
117
CCOC(=O)C(C)(CSSCC(C)(NC(=O)c1ccc2ccccc2c1)C(=O)OCC)NC(=O)c1ccc2ccccc2c1 (centres undefined)
132
OCc1cn(-c2ccc(Cl)cc2)nc1-c1ccc(O)cc1
108
Nc1nc(-c2cc3c(cc2Cl)NC(=O)/C3=C/c2ccc(Cl)cc2)cs1
45.4
CCOC(=O)C1CN(Cc2ccccc2)C(=O)C1=O (centres undefined)
101
CC(=O)N1N=C2N(Cc3ccccc3)C(=O)c3c(sc4c3CCCC4)N2C1c1cn(-c2ccccc2)nc1-c1ccc(Cl)cc1 (centres undefined)
104
COc1ccc(OC)c(NCC(=O)n2nc(/C=C\c3ccc(O)c(OC)c3)cc2/C=C\c2ccc(O)c(OC)c2)c1
21.2

Next up:
For the compound `N#CC(C#N)=C(C#N)c1c[nH]c2ccccc12` , what growth is on record?
108

Value source: PubChem BioAssay (NCI)
